Test system: STING / NF-κB pathway in THP1-Dual cells
ASSAY TEXT: STING THP1 Reporter Assay, NF-κB pathway (SEAP, QUANTI-Blue)
Format: cell-based
STATED CONDITIONS: 10% human plasma, 20 hours, 100% activation = 100 μM cGAMP, SEAP readout, read-out: THP1 Reporter Assays EC50 NFkB
MEASUREMENT LABEL: EC50 (µM)

1. NC(=O)c1cccc2c1nnn2[C@@H]1O[C@@H]2COP(=O)(O)O[C@H]3[C@@H](F)[C@H](n4cnc5c(N)ncnc54)O[C@@H]3COP(=O)(S)O[C@@H]1[C@@H]2F (single isomer, unassigned) [Example 6-2]: 36.8
2. Nc1ncnc2c1ncn2[C@@H]1O[C@@H]2COP(=O)(S)O[C@@H]3[C@H](O)[C@@H](COP(=O)(S)O[C@H]2[C@H]1F)O[C@H]3n1nnc2c(C(F)(F)F)cccc21 (single isomer, unassigned) [Example 9-2]: 15.7
3. Nc1ncnc2c1ncn2[C@@H]1O[C@@H]2COP(=O)(S)O[C@@H]3[C@H](F)[C@@H](COP(=O)(S)O[C@H]2[C@H]1F)O[C@H]3n1nnc2c([N+](=O)[O-])cccc21 (single isomer, unassigned) [Example 11-1]: 2.1
4. NC(=O)c1cccc2c1nnn2[C@@H]1O[C@@H]2COP(=O)(S)O[C@H]3[C@@H](F)[C@H](n4cnc5c(N)ncnc54)O[C@@H]3COP(=O)(S)O[C@@H]1[C@@H]2F (single isomer, unassigned) [Example 10-2]: 76.2
5. NC(=O)c1cccc2c1nnn2[C@@H]1O[C@@H]2COP(=O)(O)O[C@H]3[C@@H](F)[C@H](n4cnc5c(N)ncnc54)O[C@@H]3COP(=O)(S)O[C@@H]1[C@@H]2O (single isomer, unassigned) [Example 4-1]: 12
6. Nc1ncnc2c1ncn2[C@@H]1O[C@@H]2COP(=O)(S)O[C@@H]3[C@H](O)[C@@H](COP(=O)(S)O[C@H]2[C@H]1F)O[C@H]3n1nnc2c([N+](=O)[O-])cccc21 (single isomer, unassigned) [Example 7-2]: 64
7. Nc1ncnc2c1ncn2[C@@H]1O[C@@H]2COP(=O)(S)O[C@@H]3[C@H](F)[C@@H](COP(=O)(S)O[C@H]2[C@H]1F)O[C@H]3n1nnc2c([N+](=O)[O-])cccc21 (single isomer, unassigned) [Example 11-2]: 0.3
8. NC(=O)c1cccc2c1nnn2[C@@H]1O[C@@H]2COP(=O)(O)O[C@H]3[C@@H](F)[C@H](n4cnc5c4ncn4ccnc54)O[C@@H]3COP(=O)(S)O[C@@H]1[C@@H]2F (single isomer, unassigned) [Example 16-1]: 7.7
9. Nc1ncnc2c1ncn2[C@@H]1O[C@@H]2COP(=O)(S)O[C@@H]3[C@H](F)[C@@H](COP(=O)(S)O[C@H]2[C@H]1F)O[C@H]3n1nnc2c([N+](=O)[O-])cccc21 (single isomer, unassigned) [Example 11-4]: 34.6
10. NC(=O)c1cccc2c1nnn2[C@@H]1O[C@@H]2COP(=O)(S)O[C@H]3[C@@H](F)[C@H](n4cnc5c(N)ncnc54)O[C@@H]3COP(=O)(S)O[C@@H]1[C@@H]2O (single isomer, unassigned) [Example 8-3]: 15.3
11. NC(=O)c1cccc2c1nnn2[C@@H]1O[C@@H]2COP(=O)(S)O[C@H]3[C@@H](F)[C@H](n4cnc5c(N)ncnc54)O[C@@H]3COP(=O)(S)O[C@@H]1[C@@H]2F (single isomer, unassigned) [Example 10-1]: 2.22
12. NC(=O)c1cccc2c1nnn2[C@@H]1O[C@@H]2COP(=O)(O)O[C@H]3[C@@H](F)[C@H](n4cnc5c4ncn4ccnc54)O[C@@H]3COP(=O)(S)O[C@@H]1[C@@H]2F (single isomer, unassigned) [Example 16-2]: 73.9
13. NC(=O)c1cccc2c1nnn2[C@@H]1O[C@@H]2COP(=O)(S)O[C@H]3[C@@H](F)[C@H](n4cnc5c(N)ncnc54)O[C@@H]3COP(=O)(S)O[C@@H]1[C@@H]2O (single isomer, unassigned) [Example 8-1]: 2.4
14. O=[N+]([O-])c1cccc2c1nnn2[C@@H]1O[C@@H]2COP(=O)(S)O[C@H]3[C@@H](F)[C@H](n4cnc5c4ncn4ccnc54)O[C@@H]3COP(=O)(S)O[C@@H]1[C@@H]2O (single isomer, unassigned) [Example 15-2]: 96.8
15. Nc1ncnc2c1ncn2[C@@H]1O[C@@H]2COP(=O)(S)O[C@@H]3[C@H](F)[C@@H](COP(=O)(S)O[C@H]2[C@H]1F)O[C@H]3n1nnc2c([N+](=O)[O-])cccc21 (single isomer, unassigned) [Example 11-3]: 9.7
16. Nc1ncnc2c1ncn2[C@@H]1O[C@@H]2COP(=O)(S)O[C@@H]3[C@H](O)[C@@H](COP(=O)(O)O[C@H]2[C@H]1F)O[C@H]3n1nnc2c([N+](=O)[O-])cccc21 (single isomer, unassigned) [Example 5-2]: 13
